SYSTEM_TESTED: recombinant human IL-17A (human, UniProt Q16552 24-155)
Sequence (Q16552 24-155): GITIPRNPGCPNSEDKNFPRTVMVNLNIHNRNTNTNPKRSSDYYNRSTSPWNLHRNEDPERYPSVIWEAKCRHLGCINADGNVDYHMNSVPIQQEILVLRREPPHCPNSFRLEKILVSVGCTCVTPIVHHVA
TEST_NAME: cell-based or functional assay
ASSAY_READOUT: Cell assay IC50 (nM), IL-17A-induced IL6 release from HT1080
Your answer should be a plain number; it is taken to be in nM.

In the examples that follow, each entry is paired with its recorded Cell assay IC50 (nM), IL-17A-induced IL6 release from HT1080.
# BINDER, RESULT_NUMBER
rows = [
    ("Clone 3.5 (VHH, Human single VH domain) VHH: QVQLVQSGAEVKKPGASVKVSCAASGYTFTDYYLHWVRQAPGQGLEWMGWINPNTGTTKYAREFEGRVTMTRDTSISTAYMELSRLRSDDTAVYYCASLDRDWRSPNDYFGWFDSWGQGTLVTVSS", 26),
    ("Clone 3.11 (VHH, Human single VH domain) VHH: QVQLVQSGAEVKKPGASVKVSCKASGYNFDAYHINWVRQAPGQGLEWMGSIKPNSGATKYAQKFQGRVTITRDTSISTAYMELSRLRSDDTAVYYCASLDRDTWYPHSYFGWFDSWGQGTLVTVSS", 17),
    ("Clone 3.9 (VHH, Human single VH domain) VHH: QVQLVQSGAEVKKPGASVKVSCKASGYNFDAYHINWVRQAPGQGLEWMGSIKPNSGATKYAQKFQGRVTITRDTSISTAYMELSRLRSDDTAVYYCASMDRDYYDTSGYFGWFDSWGQGTLVTVSS", 182),
]

Okay, now this binder:
Lookup: Could you share which Cell assay IC50 (nM), IL-17A-induced IL6 release from HT1080 value was measured for Clone 3.3 (VHH, Human single VH domain) VHH: QVQLVQSGAEVKKPGASVKVSCAASGYTFTDYYLHWVRQAPGQGLEWMGWINPNTGTTKYAREFEGRVTMTRDTSISTAYMELSRLRSDDTAVYYCASMDRDYYDTSGYFGWFDSWGQGTLVTVSS ?
Found: 106

This collection of values is drawn from patent US20200347127A1.
